- subject-of-test: carbonic anhydrase II (Homo sapiens (Human), UniProt P00918)
- procedure-text: Carbonic anhydrase II enzyme activity inhibition (4-NPA esterase activity)
- Assay type: biochemical
- condition-details: 4-nitrophenyl acetate esterase activity, absorbance at 405 nm
test-readout: IC50

Please tell me: IC50 of "NS(=O)(=O)OC[C@@H]1C[C@@H](n2ccc3c(N[C@H]4CCc5ccccc54)ncnc32)C[C@@H]1O" , system carbonic anhydrase II (Homo sapiens (Human), UniProt P00918)?
0.012 µM
